- Target under test: Mtb ATP synthase (Mycobacterium tuberculosis, UniProt P9WPS1+P9WPV7)
- Experiment summary: biochemical
pKd: −log10 of the molar value.

>  <Chemical structure>
COc1nc2ccc(Br)cc2cc1[C@@H](c1ccccc1)[C@@](O)(CCN(C)C)c1cccc2ccccc12

>  <pKd>
4.44

$$$$
